Test system: U-937
Assay: Antiproliferative activity against human U937 cells after 48 hrs by WST-8 assay
Type: functional, cell-based
Conditions: U-937, 48 h
Test Readout: IC50 (µM)
Supply the numeric figure in µM, leaving out any unit text.

Problem: Notebook: pull reported IC50 for U-937, entry O=c1c(-c2ccc(O)cc2)coc2cc(O)cc(O)c12 [GENISTEIN]
Solution: 72

Problem: Also COc1cc(O)c(-c2coc3cc(O)ccc3c2=O)cc1OC ?
Solution: 72

Problem: // query: COc1cc2c(cc1OC)[C@@H]1C(=O)c3ccc4c(c3O[C@@H]1CO2)C=CC(C)(C)O4 [DEGUELIN]
Solution: 16

Problem: Try this compound too: O=c1cc(-c2ccc(O)c(O)c2)oc2cc(O)cc(O)c12 [LUTEOLIN]
Solution: 28

Problem: Also need CC(C)=CCc1c(O)cc2occ(-c3ccc(O)cc3)c(=O)c2c1O [WIGHTEONE] , thanks.
Solution: 35

* * *

Test system: HT-1080
Test: Antiproliferative activity against human HT1080 cells at 10 uM after 48 hrs by calcein-AM assay
Assay type: functional
Details: HT-1080, 48 h
Test Readout: inhibition at 10 µM (%)
Express the result in % but write the number alone.

Problem: Request - read-out inhibition at 10 µM | tested on HT-1080 | compound CC(=O)O[C@H]1C(=O)[C@@]2(C)[C@H]([C@H](OC(=O)c3ccccc3)[C@]3(O)C[C@H](OC(=O)[C@H](O)[C@@H](NC(=O)c4ccccc4)c4ccccc4)C(C)=C1C3(C)C)[C@]1(OC(C)=O)CO[C@@H]1C[C@@H]2O [PACLITAXEL]
Solution: 70.9

Problem: Please give the result for C=C(C)[C@H]1Cc2c(ccc3c2O[C@@H]2COc4cc(OC)c(OC)cc4[C@@H]2C3=O)O1 [ROTENONE] too.
Solution: 51

Problem: Query O=c1c(-c2ccc(O)cc2)coc2cc(O)cc(O)c12 [GENISTEIN] next
Solution: 5.1

* * *

Please provide measured IC50 for the entries that follow.
Test system: U-937
Test: Antiproliferative activity against human U937 cells after 48 hrs by WST-8 assay
Assay type: functional, cell-based
Details: U-937, 48 h
# value in µM; strip the unit string

Problem: Given the entry COc1ccc(-c2coc3cc(O)ccc3c2=O)cc1 [FORMONONETIN] , report its measured IC50.
Solution: 44

Problem: Queued: COc1cc(OC)c2c(c1)O[C@H](c1ccc(O)cc1)CC2
Solution: 40

Problem: Note, next up: CC(C)(O)[C@@H](O)Cc1c(O)cc2occ(-c3ccc(O)cc3)c(=O)c2c1O [ERYCIBENIN A]
Solution: 25

Problem: Quick one: CC1(C)C=Cc2c(cc(O)c3c(=O)c(-c4ccc(O)cc4)coc23)O1 [DERRONE]
Solution: 20

* * *

Tested on: U-937
Assay: Antiproliferative activity against human U937 cells after 72 hrs by WST-8 assay
Format: functional, cell-based
Conditions: U-937, 72 h
Record form. Attribute: IC50. Fill in for each entry.
Record the value in µM, omitting the unit from your answer.

Problem: Could you tell me which IC50 is on file for COc1cc(O)cc2c1C(=O)O[C@@H](C)CCCCCCC2 [LASIODIPLODIN] ?
Solution: 20

Problem: Request: COc1cc(OC)c2c(c1)O[C@H](c1ccc(O)cc1)CC2
Solution: 10

Problem: And the next one, CC(C)=CCc1c(O)cc2occ(-c3ccc(O)cc3)c(=O)c2c1O [WIGHTEONE] ?
Solution: 32

Problem: Let us now turn to CC1(C)C=Cc2c(cc3occ(-c4ccc(O)cc4)c(=O)c3c2O)O1 [ALPINUMISOFLAVONE]
Solution: 28

Problem: Repeat for the following compound: COc1cc2c(cc1OC)[C@]1(O)C(=O)c3ccc4c(c3O[C@@H]1CO2)C=CC(C)(C)O4 [TEPHROSIN]
Solution: 7.3

Problem: What about COc1cc(-c2coc3cc(O)cc(O)c3c2=O)ccc1O [3'-O-METHYLOROBOL] ?
Solution: 74

Problem: Same thing, different compound: C=C(C)[C@H]1Cc2c(ccc3c2O[C@@H]2COc4cc(OC)c(OC)cc4[C@@H]2C3=O)O1 [ROTENONE]
Solution: 0.07

* * *

Task for the reader: assign each of the following molecules its reported IC50.
Test system: U-937
Assay: Antiproliferative activity against human U937 cells after 72 hrs by WST-8 assay
Format: functional, cell-based
Conditions: U-937, 72 h

Problem: What value of IC50 has been recorded for this entry: O=c1cc(-c2ccc(O)c(O)c2)oc2cc(O)cc(O)c12 [LUTEOLIN]
Solution: 20 µM

Problem: Now the same for COc1ccc([C@@H]2CCc3c(OC)cc(OC)cc3O2)c(O)c1 [ERYCEBENIN E]
Solution: 2.9 µM

Problem: Same question for COc1ccc(-c2coc3cc(O)ccc3c2=O)cc1 [FORMONONETIN] please.
Solution: 45 µM

Problem: Lookup C=C(C)[C@H]1Cc2c(ccc3c2O[C@@H]2COc4cc(OC)c(OC)cc4[C@]2(O)C3=O)O1 [ROTENOLONE]
Solution: 0.09 µM

Problem: Quick one: COc1cc2c(cc1OC)[C@@H]1C(=O)c3ccc4c(c3O[C@@H]1CO2)C=CC(C)(C)O4 [DEGUELIN]
Solution: 5.8 µM

Problem: Follow-up item: CC(C)(O)[C@@H](O)Cc1c(O)cc2occ(-c3ccc(O)cc3)c(=O)c2c1O [ERYCIBENIN A]
Solution: 21 µM

Problem: Now the same for COc1ccc2c(c1)O[C@@H]1[C@H]2COC2=CC(=O)CC[C@@]21O
Solution: > 100 µM

Problem: CC[C@@]1(O)C(=O)OCc2c1cc1n(c2=O)Cc2cc3ccccc3nc2-1 [CAMPTOTHECIN] , same question.
Solution: 0.015 µM

* * *

Please go through the items and note down their pIC50.
Tested on: U-937
Assay: Antiproliferative activity against human U937 cells after 24 hrs by WST-8 assay
Assay type: functional, cell-based
Conditions: U-937, 24 h
Keep it numeric: pIC50 is minus log10 of the concentration in mol/L.

Problem: Reported pIC50 for COc1ccc([C@@H]2CCc3c(OC)cc(OC)cc3O2)cc1 : what is it?
Solution: 4.54

Problem: And then C=C(C)[C@H]1Cc2c(ccc3c2O[C@@H]2COc4cc(OC)c(OC)cc4[C@]2(O)C3=O)O1 , what is it?
Solution: 5.44

Problem: Also O=c1cc(-c2ccc(O)c(O)c2)oc2cc(O)cc(O)c12 ?
Solution: 4.44

Problem: Next: CC[C@@]1(O)C(=O)OCc2c1cc1n(c2=O)Cc2cc3ccccc3nc2-1
Solution: 6.17

* * *

Assign inhibition at 30 µM to each entry below.
Test system: HT-1080
Assay: Antiproliferative activity against human HT1080 cells at 30 uM after 72 hrs by MTT assay
Format: functional
Conditions: HT-1080, 72 h
Record the value in %, omitting the unit from your answer.

Problem: I am curious: what inhibition at 30 µM value has been reported for O=c1c(-c2ccc(O)cc2)coc2cc(O)cc(O)c12 ?
Solution: 22.5

Problem: Moving on to the next molecule: COc1cc2c(cc1OC)[C@]1(O)C(=O)c3ccc4c(c3O[C@@H]1CO2)C=CC(C)(C)O4
Solution: 98.6

Problem: One more molecule: C=C(C)[C@H]1Cc2c(ccc3c2O[C@@H]2COc4cc(OC)c(OC)cc4[C@]2(O)C3=O)O1
Solution: 98.5

Problem: Check CC(=O)O[C@H]1C(=O)[C@@]2(C)[C@H]([C@H](OC(=O)c3ccccc3)[C@]3(O)C[C@H](OC(=O)[C@H](O)[C@@H](NC(=O)c4ccccc4)c4ccccc4)C(C)=C1C3(C)C)[C@]1(OC(C)=O)CO[C@@H]1C[C@@H]2O too.
Solution: 79.9

Problem: Ok, now C=C(C)[C@H]1Cc2c(ccc3c2O[C@@H]2COc4cc(OC)c(OC)cc4[C@@H]2C3=O)O1
Solution: 97.8

Problem: Try this molecule next: COc1cc2c(cc1OC)[C@@H]1C(=O)c3ccc4c(c3O[C@@H]1CO2)C=CC(C)(C)O4
Solution: 98.9

* * *

System: HT-1080
Experiment: Antiproliferative activity against human HT1080 cells at 30 uM after 24 hrs by calcein-AM assay
Type: functional
Details: HT-1080, 24 h
Test Readout: inhibition at 30 µM

Problem: Quick check: inhibition at 30 µM of C=C(C)[C@H]1Cc2c(ccc3c2O[C@@H]2COc4cc(OC)c(OC)cc4[C@@H]2C3=O)O1 ?
Solution: 26.8%

Problem: Query COc1cc2c(cc1OC)[C@@H]1C(=O)c3ccc4c(c3O[C@@H]1CO2)C=CC(C)(C)O4 next
Solution: 17%

Problem: Queued: CC(=O)O[C@H]1C(=O)[C@@]2(C)[C@H]([C@H](OC(=O)c3ccccc3)[C@]3(O)C[C@H](OC(=O)[C@H](O)[C@@H](NC(=O)c4ccccc4)c4ccccc4)C(C)=C1C3(C)C)[C@]1(OC(C)=O)CO[C@@H]1C[C@@H]2O
Solution: 10.3%

Problem: Same thing, different molecule: O=c1c(-c2ccc(O)cc2)coc2cc(O)cc(O)c12
Solution: 17.3%

Problem: Please answer likewise for C=C(C)[C@H]1Cc2c(ccc3c2O[C@@H]2COc4cc(OC)c(OC)cc4[C@]2(O)C3=O)O1
Solution: 29.2%

Problem: Please answer likewise for COc1cc2c(cc1OC)[C@]1(O)C(=O)c3ccc4c(c3O[C@@H]1CO2)C=CC(C)(C)O4
Solution: 13.7%
